target: μ-opioid receptor (Homo sapiens (Human), UniProt P35372)
assay.remarks: μ-opioid receptor [35S]GTPγS functional assay, U-2 OS cells
Assay type: biochemical
measurement.setup: relative to DAMGO; U-2 OS cells
Give Y when the value for Emax is at least 60%. Give N when it is less.

Qu. Reported Emax at or above 60%? "CN1CC[C@]23Cc4[nH]c(=O)c(C(=O)N5CCCC5)cc4C[C@@]2(O)[C@H]1Cc1ccc(O)cc13"
Ans. Y

Qu. Reported Emax at or above 60%? "COc1ccc2c(c1)[C@]13CCN(C)[C@H](C2)[C@]1(O)Cc1cc(C(=O)O)c(=O)[nH]c1C3"
Ans. Y

Qu. Reported Emax at or above 60%? "COc1ccc2c(c1)[C@]13CCN[C@H](C2)[C@]1(O)Cc1cc(C(N)=O)c(=O)[nH]c1C3"
Ans. N

Qu. Reported Emax at or above 60%? "CN1CC[C@]23Cc4[nH]c(=O)c(C(=O)NCC5CCCCC5)cc4C[C@@]2(O)[C@H]1Cc1ccc(O)cc13"
Ans. Y

Qu. Reported Emax at or above 60%? "CC(C)CCNC(=O)c1cc2c([nH]c1=O)C[C@]13CCN(C)[C@H](Cc4ccc(O)cc41)[C@]3(O)C2"
Ans. Y

====

target: κ-opioid receptor (Homo sapiens (Human))
assay.remarks: κ-opioid receptor [35S]GTPγS functional assay, U-2 OS cells
Type: biochemical
Experimental: κ-Opioid Receptor Functional Assay Procedures: Functional [^35S]GTPγS binding assays were conducted as follows. κ opioid receptor membrane solution was prepared by sequentially adding final concentrations of 0.026 μg/μl κ membrane protein (in-house), 10 μg/mL saponin, 3 μM GDP and 0.20 nM [^35S]GTPγS to binding buffer (100 mM NaCl, 10 mM MgCl2, 20 mM HEPES, pH 7.4) on ice. […]
For each record, check the reported EC50: if it is below 0.6 µM write TRUE, else write FALSE.

// below: answered compounds
Qu. EC50 under 0.6 µM? Item: "NC(=O)c1cc2c([nH]c1=O)C[C@]13CCN(CCc4ccccc4)[C@H](Cc4ccc(O)cc41)[C@]3(O)C2"
Ans. TRUE

Qu. EC50 under 0.6 µM? Item: "CN1CC[C@]23Cc4[nH]c(=O)c(C(=O)O)cc4C[C@@]2(O)[C@H]1Cc1ccc(O)cc13"
Ans. TRUE

Qu. EC50 under 0.6 µM? Item: "CN1CC[C@]23Cc4[nH]c(=O)c(C(=O)N[C@@H](Cc5ccccc5)C(N)=O)cc4C[C@@]2(O)[C@H]1Cc1ccc(O)cc13"
Ans. TRUE

Qu. EC50 under 0.6 µM? Item: "CC(C)C[C@H](NC(=O)c1cc2c([nH]c1=O)C[C@]13CCN(C)[C@H](Cc4ccc(O)cc41)[C@]3(O)C2)C(N)=O"
Ans. FALSE

Qu. EC50 under 0.6 µM? Item: "CN1CC[C@]23Cc4[nH]c(=O)c(C(=O)NCC5CCCCC5)cc4C[C@@]2(O)[C@H]1Cc1ccc(O)cc13"
Ans. TRUE

Next:
Qu. EC50 under 0.6 µM? Item: "COC(=O)c1cc2c([nH]c1=O)C[C@]13CCN(Cc4ccccc4)[C@H](Cc4ccc(OC)cc41)[C@]3(O)C2"
Ans. FALSE

====

target: κ-opioid receptor (Homo sapiens (Human))
assay.remarks: κ-opioid receptor [35S]GTPγS functional assay, HEK-293 or CHO cells
Type: biochemical
Experimental: κ-Opioid Receptor Functional Assay Procedures: Functional [^35S]GTPγS binding assays were conducted as follows. κ opioid receptor membrane solution was prepared by sequentially adding final concentrations of 0.026 μg/μl κ membrane protein (in-house), 10 μg/mL saponin, 3 μM GDP and 0.20 nM [^35S]GTPγS to binding buffer (100 mM NaCl, 10 mM MgCl2, 20 mM HEPES, pH 7.4) on ice. […]
Measured EC50 values are reported for all entries that follow.
The figure you give is taken to be in nM; do not add the unit.

Known EC50 results, listed for orientation:
Qu. For κ-opioid receptor (Homo sapiens (Human)), give EC50 of the listed molecule: "NC(=O)CNC(=O)c1cc2c([nH]c1=O)C[C@]13CCN(CC4CC4)[C@H](Cc4ccc(O)cc41)[C@@H]3C2"
Ans. 4.19

Qu. For κ-opioid receptor (Homo sapiens (Human)), give EC50 of the listed molecule: "COc1ccc2c(c1)[C@]13CCN(CC4CC4)[C@H](C2)[C@@H]1Cc1cc(C(N)=O)c(=O)[nH]c1C3"
Ans. 2980

Qu. For κ-opioid receptor (Homo sapiens (Human)), give EC50 of the listed molecule: "O=C(O)c1cc2c([nH]c1=O)C[C@]13CCN(CC4CC4)[C@H](Cc4ccc(O)cc41)[C@@H]3C2"
Ans. 1.4

Qu. For κ-opioid receptor (Homo sapiens (Human)), give EC50 of the listed molecule: "C[C@H](NC(=O)c1cc2c([nH]c1=O)C[C@]13CCN(CC4CC4)[C@H](Cc4ccc(O)cc41)[C@@H]3C2)C(N)=O"
Ans. 9.89

Qu. For κ-opioid receptor (Homo sapiens (Human)), give EC50 of the listed molecule: "NC(=O)[C@H](Cc1ccccc1)NC(=O)c1cc2c([nH]c1=O)C[C@]13CCN(CC4CC4)[C@H](Cc4ccc(O)cc41)[C@@H]3C2"
Ans. 8.35

Would you kindly look at the next entry?
Qu. For κ-opioid receptor (Homo sapiens (Human)), give EC50 of the listed molecule: "NC(=O)c1cc2c([nH]c1=O)C[C@]13CCN(CC4CC4)[C@H](Cc4ccc(O)cc41)[C@]3(O)C2"
Ans. 4.37

====

target: κ-opioid receptor (Homo sapiens (Human), UniProt P41145)
assay.remarks: κ-opioid receptor [35S]GTPγS functional assay, U-2 OS cells
Format: biochemical
Method: κ-Opioid Receptor Functional Assay Procedures: Functional [^35S]GTPγS binding assays were conducted as follows. κ opioid receptor membrane solution was prepared by sequentially adding final concentrations of 0.026 μg/μl κ membrane protein (in-house), 10 μg/mL saponin, 3 μM GDP and 0.20 nM [^35S]GTPγS to binding buffer (100 mM NaCl, 10 mM MgCl2, 20 mM HEPES, pH 7.4) on ice. […]
Measured pEC50 values are reported for all entries that follow.
In textbook form, pEC50 equals minus log to base ten of the concentration in mol/L.

Known pEC50 results, listed for orientation:
Qu. For κ-opioid receptor (Homo sapiens (Human), UniProt P41145), give pEC50 of the listed compound: "C[C@H](NC(=O)c1cc2c([nH]c1=O)C[C@]13CCN(C)[C@H](Cc4ccc(O)cc41)[C@]3(O)C2)C(N)=O"
Ans. 5.97

Qu. For κ-opioid receptor (Homo sapiens (Human), UniProt P41145), give pEC50 of the listed compound: "NC(=O)c1cc2c([nH]c1=O)C[C@]13CCN(CCF)[C@H](Cc4ccc(O)cc41)[C@]3(O)C2"
Ans. 7.03

Qu. For κ-opioid receptor (Homo sapiens (Human), UniProt P41145), give pEC50 of the listed compound: "CC(C)CCNC(=O)c1cc2c([nH]c1=O)C[C@]13CCN(C)[C@H](Cc4ccc(O)cc41)[C@]3(O)C2"
Ans. 6.69

Next:
Qu. For κ-opioid receptor (Homo sapiens (Human), UniProt P41145), give pEC50 of the listed compound: "CN1CC[C@]23Cc4[nH]c(=O)c(C(=O)NCc5ccccc5)cc4C[C@@]2(O)[C@H]1Cc1ccc(O)cc13"
Ans. 6.89

Qu. For κ-opioid receptor (Homo sapiens (Human), UniProt P41145), give pEC50 of the listed compound: "O=C(c1cc2c([nH]c1=O)C[C@]13CCN(CC4CC4)[C@H](Cc4ccc(O)cc41)[C@@H]3C2)N1CCCC1"
Ans. 9.48

Qu. For κ-opioid receptor (Homo sapiens (Human), UniProt P41145), give pEC50 of the listed compound: "CN1CC[C@]23Cc4c(cc(C(N)=O)c(=O)n4C)C[C@@]2(O)[C@H]1Cc1ccc(O)cc13"
Ans. 6.19

Qu. For κ-opioid receptor (Homo sapiens (Human), UniProt P41145), give pEC50 of the listed compound: "CN1CC[C@]23Cc4[nH]c(=O)c(C(=O)N5CCOCC5)cc4C[C@@]2(O)[C@H]1Cc1ccc(O)cc13"
Ans. 6.29

====

target: κ-opioid receptor (Homo sapiens (Human), UniProt P41145)
assay.remarks: κ-opioid receptor [35S]GTPγS functional assay, HEK-293 or CHO cells
Format: biochemical
measurement.setup: GTPγS, HEK-293 or CHO cells; read-out: κ EC50
quantity.measured: EC50 (µM)
The figure you give is taken to be in µM; do not add the unit.

Qu. Report measured EC50; entry is "COc1ccc2c(c1)[C@]13CCN(CC4CC4)[C@H](C2)[C@@H]1Cc1cc(C(=O)O)c(=O)[nH]c1C3"
Ans. 3.49
